// reported pEC50 for each item listed
target: KRAS-G12D protein (Homo sapiens, UniProt P01116, G12D); test: SOS-mediated nucleotide exchange assay (BODIPY-GDP / Tb-streptavidin TR-FRET); assay type: biochemical
Sequence (P01116 1-188 isoform P01116-2 G12D): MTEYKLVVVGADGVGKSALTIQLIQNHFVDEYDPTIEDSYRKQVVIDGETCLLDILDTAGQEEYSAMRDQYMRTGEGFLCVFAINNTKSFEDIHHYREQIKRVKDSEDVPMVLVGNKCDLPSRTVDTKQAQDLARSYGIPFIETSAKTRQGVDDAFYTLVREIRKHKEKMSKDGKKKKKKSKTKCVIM
*1 amine or outer side, *2 acyl side, *3 side chain or, on linkers, in order; H or OH if unused. Where a SMILES comes first, the peptide text is derived from it. [ ]: non-standard residue; d: D form. The star is where a group is joined. X80 = Nc1nccn1CCC[C@H](N[*:1])C(=O)[*:2]; Phe(2-F) = N[C@@H](Cc1ccccc1F)C(=O)O; NMe3Pal = CN[C@@H](Cc1cccnc1)C(=O)O; X1 = O=C(C12CC(CN[*:1])(C1)C2)[*:2]; NMeF = CN[C@@H](Cc1ccccc1)C(=O)O; PhLac = O=C(O)[C@@H](O)Cc1ccccc1; d3Pal = N[C@H](Cc1cccnc1)C(=O)O; Cba = N[C@@H](CC1CCC1)C(=O)O; NMeA = CN[C@@H](C)C(=O)O; Nle = CCCC[C@H](N)C(=O)O; CHF2 = FC(F)*
Keep in mind that pEC50 stands for -log10 of concentration in molar terms.

Read off the recorded pEC50 for CCCC[C@@H]1NC(=O)[C@H](Cc2ccccc2F)NC(=O)[C@H](CC2CCC2)NC(=O)[C@@H](Cc2cccnc2)NC(=O)[C@H](CCCn2ccnc2N)NC(=O)[C@H](Cc2ccccc2)NC(=O)C23CC(CNC(=O)[C@H](Cc4cccnc4)N(C)C1=O)(C2)C3 [compound 110] (cyclo(F[X80][d3Pal][Cba][Phe(2-F)][Nle][NMe3Pal][X1]))
8.94

Continuing:
Read off the recorded pEC50 for CCCC[C@@H]1NC(=O)[C@H](Cc2ccc(OC(F)F)cc2)NC(=O)[C@H](C)N(C)C(=O)[C@H](Cc2ccccc2)OC(=O)C23CC(CNC(=O)[C@H](Cc4ccccc4)N(C)C(=O)[C@H](CCCC)NC(=O)[C@H](Cc4ccccc4F)NC1=O)(C2)C3 [compound 312] (cyclo([NMeA]Y(CHF2)[Nle][Phe(2-F)][Nle][NMeF][X1][PhLac]))
6.02

Read off the recorded pEC50 for CCCCC[C@@H]1NC(=O)[C@H](Cc2ccc(OC)cc2)NC(=O)[C@H](CC2CCC2)NC(=O)[C@H](Cc2cnn(C)c2)NC(=O)[C@H](CCCNC(=N)N)NC(=O)[C@H](Cc2ccccc2)NC(=O)CSC[C@@](C)(C(N)=O)NC(=O)[C@H](Cc2ccccc2)N(C)C1=O
7.99

====

biological target: KRAS-G12D protein (Homo sapiens, UniProt P01116, G12D); experiment: SOS-mediated nucleotide exchange assay (BODIPY-GDP / Tb-streptavidin TR-FRET); assay type: biochemical
*1 amine or outer side, *2 acyl side, *3 side chain or, on linkers, in order; H or OH if unused. Where a SMILES comes first, the peptide text is derived from it. [ ]: non-standard residue; d: D form. Phe(4-Cl) = N[C@@H](Cc1ccc(Cl)cc1)C(=O)O; NHCH2CH2SCH2CO = O=C(CSCCN[*:1])[*:2]; Phe(2-F) = N[C@@H](Cc1ccccc1F)C(=O)O; NMe3Pal = CN[C@@H](Cc1cccnc1)C(=O)O; X1 = O=C(C12CC(CN[*:1])(C1)C2)[*:2]; X56 = O=C(C12CC(N[*:1])(C1)C2)[*:2]; NMeF = CN[C@@H](Cc1ccccc1)C(=O)O; 3Pal = N[C@@H](Cc1cccnc1)C(=O)O; d3Pal = N[C@H](Cc1cccnc1)C(=O)O; Cba = N[C@@H](CC1CCC1)C(=O)O; NMeA = CN[C@@H](C)C(=O)O; Nle = CCCC[C@H](N)C(=O)O
Attribute measured: pEC50
Keep in mind that pEC50 stands for -log10 of concentration in molar terms.

Below: 2 molecules and their reported pEC50.
Report pEC50 from KRAS-G12D protein (Homo sapiens, UniProt P01116, G12D) testing of CCCC[C@@H]1NC(=O)[C@H](Cc2ccc(O)cc2)NC(=O)[C@H](CC(C)C)NC(=O)[C@H](Cc2ccc(O)cc2)NC(=O)[C@H](CCCNC(=N)N)NC(=O)[C@H](Cc2ccc(Cl)cc2)NC(=O)CSCCNC(=O)[C@H](Cc2ccccc2)N(C)C1=O [compound 74] (cyclo(LY[Nle][NMeF][NHCH2CH2SCH2CO][Phe(4-Cl)]RY))
5.15

Report pEC50 from KRAS-G12D protein (Homo sapiens, UniProt P01116, G12D) testing of CCCC[C@@H]1NC(=O)[C@H](Cc2cccnc2)NC(=O)[C@H](C)N(C)C(=O)[C@H](Cc2ccc(O)cc2)NC(=O)C23CC(CNC(=O)[C@H](Cc4cccnc4)N(C)C(=O)[C@H](CCCC)NC(=O)[C@H](Cc4ccccc4F)NC1=O)(C2)C3 [compound 168] (cyclo(Y[NMeA][3Pal][Nle][Phe(2-F)][Nle][NMe3Pal][X1]))
6.36

Continue with the next molecule.
Report pEC50 from KRAS-G12D protein (Homo sapiens, UniProt P01116, G12D) testing of CCCC[C@@H]1NC(=O)[C@H](Cc2ccccc2F)NC(=O)[C@H](CC2CCC2)NC(=O)[C@@H](Cc2cccnc2)NC(=O)[C@H](CCCNC(=N)N)NC(=O)[C@H](Cc2ccccc2)NC(=O)C23CC(C2)(C3)NC(=O)[C@H](Cc2cccnc2)N(C)C1=O [compound 108] (cyclo(FR[d3Pal][Cba][Phe(2-F)][Nle][NMe3Pal][X56]))
5.95

Data origin: patent US20260001914A1
